Tested on: BDF1 mice, P388 leukemia ip, median survival T/C
Experiment: NCI In Vivo Anticancer Drug Screen. Data for tumor model P388 Leukemia (intraperitoneal) in B6D2F1 (BDF1) mice
Settings: endpoint: median survival time; dose: 25.0 mg/kg/injection; schedule: Q01DX009 (ip); vehicle: Klucel (hydroxypropylcellulose) (HPC); higher = longer survival
Inconclusive results and toxic doses are left out.
Entries and their T/C values follow.

Reference set (8 entries):
molecule=CCOC(=O)c1ccc(C(=O)OCC)c(Cl)n1 system_tested="BDF1 mice, P388 leukemia ip, median survival T/C" parameter=T/C value="112 % of control"
molecule=CC(=N/O)/C(C)=N\O system_tested="BDF1 mice, P388 leukemia ip, median survival T/C" parameter=T/C value="95 % of control"
molecule=O=[N+]([O-])c1ccc([N+](=O)[O-])c(Cl)c1 system_tested="BDF1 mice, P388 leukemia ip, median survival T/C" parameter=T/C value="100 % of control"
molecule="NC(=O)C(Br)CBr (stereo not drawn)" system_tested="BDF1 mice, P388 leukemia ip, median survival T/C" parameter=T/C value="114 % of control"
molecule=CSc1nnnn1-c1ccccc1 system_tested="BDF1 mice, P388 leukemia ip, median survival T/C" parameter=T/C value="95 % of control"
molecule=N=C(N)SCc1cccc([N+](=O)[O-])c1 system_tested="BDF1 mice, P388 leukemia ip, median survival T/C" parameter=T/C value="103 % of control"
molecule=O=C(/C(=C/c1ccccc1)CBr)c1ccccc1 system_tested="BDF1 mice, P388 leukemia ip, median survival T/C" parameter=T/C value="86 % of control"
molecule=N#C/C(=C1C=C(Br)/C(=N\O)C=C\1Cl)c1ccc(Cl)cc1 system_tested="BDF1 mice, P388 leukemia ip, median survival T/C" parameter=T/C value="115 % of control"

Ask: Would you kindly share the measured T/C for Nc1c(Cl)c(Cl)nc(C(=O)O)c1Cl ?
Result: 104 % of control

Ask: Would you kindly share the measured T/C for CN(C)c1ccc2c(N(C)C)cc(N(C)C)nc2c1 ?
Result: 89 % of control

Ask: Would you kindly share the measured T/C for Nc1ncnc2c1cnn2Cc1ccc(Cl)cc1 ?
Result: 90 % of control

Ask: Would you kindly share the measured T/C for NC(CSC(c1ccccc1)(c1ccccc1)c1ccc(CO)cc1)C(=O)O (stereo not drawn) ?
Result: 150 % of control

Ask: Would you kindly share the measured T/C for BrCc1ccc2c3c(ccc(CBr)c13)CC2 ?
Result: 118 % of control

Ask: Would you kindly share the measured T/C for CCCc1nc2c(OC)ccc(OC)c2nc1C ?
Result: 100 % of control

Ask: Would you kindly share the measured T/C for O=[N+]([O-])c1cc(S(=O)(=O)OCC2CO2)ccc1Cl (stereo not drawn) ?
Result: 120 % of control

Ask: Would you kindly share the measured T/C for CCS(=O)(=O)C(Br)CBr (stereo not drawn) ?
Result: 114 % of control

Ask: Would you kindly share the measured T/C for CCN(C)c1nc(N(C)CC)c2nc(N(C)CC)nc(N(C)CC)c2n1 ?
Result: 106 % of control

Ask: Would you kindly share the measured T/C for C[C@@H]1C[C@@]2(C)[C@@H](CC[C@@H]3[C@@H]2CC[C@]2(C)[C@@H](OC4CCCCO4)CC[C@@H]32)CC1=O (stereo partly drawn) ?
Result: 88 % of control
